Test system: N. gonorrhoeae CDC-0197
Experiment: Liquid broth MIC in Fastidious broth
Details: Neisseria gonorrhoeae, CDC0197, read-out: Minimum Inhibitory Concentration (MIC), N. gonorrhoeae CDC-0197
Endpoint Name: MIC

In one line, give reported MIC of the entry O=C(O)c1cccc2c1OB(O)[C@@H](NC(=O)C(NC(=O)c1ccc[nH]c1=O)c1ccc(P(=O)(O)O)cc1)C2 (stereo partly drawn) [Example 174] . 16 to 32 µg/mL

In one line, give reported MIC of the entry O=C(CN1CCN(C(=O)NC(C(=O)N[C@H]2Cc3ccc(F)c(C(=O)O)c3OB2O)c2cc(F)c(O)c(O)c2Cl)C(=O)C1=O)NCc1cccc(O)c1 (stereo partly drawn) [Example 237] . 16 to 32 µg/mL

In one line, give reported MIC of the entry CN1CCCN(C(=O)NC(C(=O)N[C@H]2Cc3cccc(C(=O)O)c3OB2O)c2ccc(P(=O)(O)O)cc2)C1=O (stereo partly drawn) [Example 38] . 1 to 2 µg/mL

In one line, give reported MIC of the entry O=C(CN1CCN(C(=O)N[C@@H](C(=O)N[C@H]2Cc3ccc(F)c(C(=O)O)c3OB2O)c2cc(F)c(O)c(O)c2Cl)C(=O)C1=O)NCc1ccncc1 [Example 239] . 16 to 32 µg/mL

In one line, give reported MIC of the entry O=C(NCCN1CCN(C(=O)NC(C(=O)N[C@H]2Cc3ccc(F)c(C(=O)O)c3OB2O)c2cc(F)c(O)c(O)c2Cl)C1=O)c1ccncc1 (stereo partly drawn) [Example 245] . > 64 µg/mL

In one line, give reported MIC of the entry O=C(NCCCN1CCN(C(=O)NC(C(=O)N[C@H]2Cc3ccc(F)c(C(=O)O)c3OB2O)c2cc(F)c(O)c(O)c2Cl)C(=O)C1=O)c1cccc(O)c1 (stereo partly drawn) [Example 204] . 16 to 32 µg/mL

In one line, give reported MIC of the entry O=C(NC(C(=O)N[C@H]1Cc2cccc(C(=O)O)c2OB1O)c1ccc(P(=O)(O)O)cc1)c1ccc(Cl)cn1 (stereo partly drawn) [Example 184] . < 1 µg/mL

In one line, give reported MIC of the entry Cn1cccc(C(=O)N[C@H](C(=O)N[C@H]2Cc3cccc(C(=O)O)c3OB2O)c2ccc(P(=O)(O)O)cc2)c1=O (single isomer, unassigned) [Example 181] . 16 to 32 µg/mL

In one line, give reported MIC of the entry CN(CCN1CCN(C(=O)NC(C(=O)N[C@H]2Cc3ccc(F)c(C(=O)O)c3OB2O)c2cc(F)c(O)c(O)c2Cl)C(=O)C1=O)S(=O)(=O)c1ccc(C(N)=O)cc1 (stereo partly drawn) [Example 223] . > 64 µg/mL
